Can you tell me hPDGF-BB IC50 (nM), hPDGF-BB-induced NIH-3T3 cell proliferation for the items I'm about to list?
- Assayed System: recombinant human PDGF-BB (human, UniProt P01127 82-190)
- Sequence (P01127 82-190 limits assumed): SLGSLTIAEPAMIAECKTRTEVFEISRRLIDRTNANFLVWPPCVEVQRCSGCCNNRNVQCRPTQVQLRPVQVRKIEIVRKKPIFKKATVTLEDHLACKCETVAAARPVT
- Measurement Notes: cell-based or functional assay
Numbers only, in nM.

Would you please look over these solved cases?
- hBFU-3E2.3 (antibody, V domains shown) VH: EVQLVQSGAEVKKPGSSVKVSCKASGYTFTESYMYWVKQAPGQGLELIGRIDPEDGSTDYVEKFKNKATLTADKSTSTAYMELSSLRSEDTAVYFCARFGARSYFYPMDAWGQGTTVTVSS VL: ATQLTQSPSSLSASVGDRVTISCRASESVSTLMHWYQQKPGKQPRLLIYGASNLESGVPSRFSGSGSGTDFTLTISSLQPEDFATYFCQQSWNDPWTFGGGTKVEIK: 0.335
- hBDI-9E8.11 (antibody, V domains shown, Humanized IgG from pHybE expression vectors, made in HEK293 6E and protein A purified) VH: EVQLVESGGGLVQPGGSLRLSCAFSGFSLSTYGMGVGWIRQAPGKGLEWLANIWWDDDKYYNPSLKNRLTISKDTSKNQAYLQINSLRAEDTAVYYCARIESIGTTYSFDYWGQGTLVTVSS VL: DFVLTQSPDSLAVSLGERATINCERSSGDIGDSYVSWYQQKPGQPPKNVIYADDQRPSGVPDRFSGSGSGNSASLTISSLQAEDVAVYFCQSYDINIDIVFGGGTKVEIK: 0.309

Lookup: Item hBDI-9E8.3 (antibody, V domains shown) VH: EVTLRESGPALVKPTQTLTLTCTFSGFSLSTYGMGVGWIRQPPGKALEWLANIWWDDDKYYNPSLKNRLTISKDTSKNQVVLTMTNMDPVDTATYYCARIESIGTTYSFDYWGQGTMVTVSS VL: EIVLTQSPGTLSLSPGERATLSCERSSGDIGDSYVSWYQQKPGQAPRLLIYADDQRPSGIPDRFSGSGSGTDFTLTISRLEPEDFAVYYCQSYDINIDIVFGGGTKVEIK has what recorded hPDGF-BB IC50 (nM), hPDGF-BB-induced NIH-3T3 cell proliferation?
Found: 1.58
